Target entity: Alpha-2C adrenergic receptor (Homo sapiens); note: assay procedure not described here
Sequence (P18825 whole entry): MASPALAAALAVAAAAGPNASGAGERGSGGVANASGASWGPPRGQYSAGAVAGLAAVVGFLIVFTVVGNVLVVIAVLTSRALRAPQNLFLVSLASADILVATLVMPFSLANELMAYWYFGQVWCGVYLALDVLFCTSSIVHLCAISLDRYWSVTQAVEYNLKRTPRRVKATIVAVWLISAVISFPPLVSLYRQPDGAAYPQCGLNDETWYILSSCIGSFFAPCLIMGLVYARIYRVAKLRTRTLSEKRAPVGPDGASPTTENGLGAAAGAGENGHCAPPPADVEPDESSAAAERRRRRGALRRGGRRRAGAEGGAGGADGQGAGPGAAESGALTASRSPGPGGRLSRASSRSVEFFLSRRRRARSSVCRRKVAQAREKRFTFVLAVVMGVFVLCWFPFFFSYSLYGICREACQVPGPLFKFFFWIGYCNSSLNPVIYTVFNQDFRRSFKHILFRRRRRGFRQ
Format: functional
Result type: AC50

CCCNC(=O)NS(=O)(=O)c1ccc(Cl)cc1 [CHLORPROPAMIDE] :: > 10 µM
COc1cc(C(=O)NC2CCCNC2)cc(OC)c1OC (stereo not given) [TROXIPIDE] :: > 30 µM
COc1ccc(C2C(=O)c3ccccc3C2=O)cc1 [ANISINDIONE] :: > 10 µM
CCCCOc1ccc(C(=O)CCN2CCCCC2)cc1 [DYCLONINE] :: 8.4 µM
CCC1(CCC(C)C)C(=O)NC(=O)NC1=O [AMOBARBITAL] :: > 10 µM
COc1ccc2cc(CCC(C)=O)ccc2c1 [NABUMETONE] :: > 30 µM

[in] Quick check: AC50 of CC(C)c1cccc(C(C)C)c1O [PROPOFOL] ?
[out] > 30 µM

[in] Which value of AC50 has been reported for O=C(O)CCNC(=O)c1ccc(/N=N/c2ccc(O)c(C(=O)O)c2)cc1 [BALSALAZIDE] in the records?
[out] > 30 µM

[in] # lookup: AC50 of CCCCCCCC(=O)CC[C@@H]1[C@@H](C/C=C\CCCC(=O)OC(C)C)[C@@H](O)C[C@H]1O [UNOPROSTONE ISOPROPYL]
[out] 13 µM

[in] Please report the recorded AC50 for NC[C@H]1CC[C@H](C(=O)Oc2ccc(CCC(=O)O)cc2)CC1 [CETRAXATE] .
[out] > 30 µM
